- Experiment notes: Solubility of the compound in 20% DMSO
- Type: physicochemical
Measured property: solubility

In [3]: df
Out[3]:
                              line_notation  measured_property     result
0  COC(=O)c1cc2c([nH]c3ccc(NC(=O)c4cc(C(F)(F)F)cc(C(F)(F)F)c4)cc32)c(C)n1         solubility  Insoluble
1  COC(=O)c1cc2c([nH]c3ccc(NC(=O)c4ccc(C(F)(F)F)cc4)cc32)c(C)n1         solubility  Insoluble
2  COC(=O)c1cc2c([nH]c3ccc(NC(=O)c4ccc5ccccc5c4)cc32)c(C)n1         solubility  Insoluble
3  COC(=O)c1cc2c([nH]c3ccc(NC(=O)c4ccc(OC)cc4)cc32)c(C)n1         solubility  Insoluble
4  COC(=O)c1cc2c([nH]c3ccc(NC(=O)c4ccc(Br)cc4)cc32)c(C)n1         solubility  Insoluble
